# credit: patent US20190241669A1

# measured.target: Human BCMA (human) (UniProt Q02223)
# measurement.notes: SPR, IgG on chip, huBCMA analyte

- binder: "A02_Rd4_6nM_C25 (antibody, V domains shown, IgG) VH: EVQLLESGGGLVQPGGSLRLSCAASGFTFSSYAMNWVRQAPGKGLEWVSAISDSGGSRWYADSVKGRFTISRDNSKNTLYLQMNSLRAEDTAVYYCARYWPMTPWGQGTLVTVSS VL: EIVLTQSPGTLSLSPGERATLSCRASQSVSSSYLAWYQQKPGQAPRLLMYDASIRATGIPDRFSGSGSGTDFTLTISRLEPEDFAVYYCQQYLDWPLTFGQGTKVEIK"
  koff / s⁻¹: 0.00018
- binder: "A02_Rd4_0.6nM_C26 (antibody, V domains shown, IgG) VH: EVQLLESGGGLVQPGGSLRLSCAASGFTFSSYAMNWVRQAPGKGLEWVSAILMSGGSTYYADSVKGRFTISRDNSKNTLYLQMNSLRAEDTAVYYCARYWPMSLWGQGTLVTVSS VL: EIVLTQSPGTLSLSPGERATLSCGPSQSVSSSYLAWYQQKPGQAPRLLMYDASIRATGIPDRFSGSGSGTDFTLTISRLEPEDFAVYYCQQYQSWPLTFGQGTKVEIK"
  koff / s⁻¹: 0.000443
- binder: "COMBO_Rd4_0.6nM_C11 (antibody, V domains shown, IgG) VH: EVQLLESGGGLVQPGGSLRLSCAASGFTFSSYPMSWVRQAPGKGLEWVSAALGSGGSTYYADSVKGRFTISRDNSKNTLYLQMNSLRAEDTAVYYCARYWPMSLWGQGTLVTVSS VL: EIVLTQSPGTLSLSPGERATLSCRASQSVSVRYLAWYQQKPGQAPRLLMYDASIRATGIPDRFSGSGSGTDFTLTISRLEPEDFAVYYCQQYGSWPITFGQGTKVEIK"
  koff / s⁻¹: 0.00106
- binder: "C01_Rd4_6nM_C09 (antibody, V domains shown, IgG) VH: EVQLLESGGGLVQPGGSLRLSCAASGFTFSSYPMSWVRQAPGKGLEWVSATVGSGGSIGYADSVKGRFTISRDNSKNTLYLQMNSLRAEDTAVYYCARYWPMDSWGQGTLVTVSS VL: EIVLTQSPGTLSLSPGERATLSCACSQSVSSTYLAWYQQKPGQAPRLLIYDASSRAPGIPDRFSGSGSGTDFTLTISRLEPEDFAVYYCQQYSAWPLTFGQGTKVEIK"
  koff / s⁻¹: 0.0128
- binder: "A02_Rd4_6nM_C26 (antibody, V domains shown, IgG) VH: EVQLLESGGGLVQPGGSLRLSCAASGFTFSSYAMNWVRQAPGKGLEWVSAISDSGGSTYYADSVKGRFTISRDNSKNTLYLQMNSLRAEDTAVYYCARYWPMSLWGQGTLVTVSS VL: EIVLTQSPGTLSLSPGERATLSCRASQSVSSLYLAWYQQKPGQAPRLLMYDASIRATGIPDRFSGSGSGTDFTLTISRLEPEDFAVYYCQQYQVWPLTFGQGTKVEIK"
  koff / s⁻¹: 0.000139
- binder: "COMBO_Rd4_6nM_C07 (antibody, V domains shown, IgG) VH: EVQLLESGGGLVQPGGSLRLSCAASGFTFSSYPMSWVRQAPGKGLEWVSAIGGSGGSLPYADSVKGRFTISRDNSKNTLYLQMNSLRAEDTAVYYCARYWPMADWGQGTLVTVSS VL: EIVLTQSPGTLSLSPGERATLSCRASQPISSSYLAWYQQKPGQAPRLLMYDASIRATGIPDRFSGSGSGTDFTLTISRLEPEDFAVYYCQQYQGWPLTFGQGTKVEIK"
  koff / s⁻¹: 0.000371
- binder: "A02_Rd4_6nM_C16 (antibody, V domains shown, IgG; also called P5AC16; P5A16) VH: EVQLLESGGGLVQPGGSLRLSCAASGFTFSSYAMNWVRQAPGKGLEWVSAISDFGGSTYYADSVKGRFTISRDNSKNTLYLQMNSLRAEDTAVYYCARYWPMDIWGQGTLVTVSS VL: EIVLTQSPGTLSLSPGERATLSCRASQSVSDLYLAWYQQKPGQAPRLLMYDASIRATGIPDRFSGSGSGTDFTLTISRLEPEDFAVYYCQQYQTWPLTFGQGTKVEIK"
  koff / s⁻¹: 0.000141
- binder: "COMBO_Rd4_0.6nM_C30 (antibody, V domains shown, IgG) VH: EVQLLESGGGLVQPGGSLRLSCAASGFTFSSYPMSWVRQAPGKGLEWVSAIGGSGGSTYYADSVKGRFTISRDNSKNTLYLQMNSLRAEDTAVYYCARYWPMDSWGQGTLVTVSS VL: EIVLTQSPGTLSLSPGERATLSCRASQSVSYMYLAWYQQKPGQAPRLLIYDASIRATGIPDRFSGSGSGTDFTLTISRLEPEDFAVYYCQQYKSWPLTFGQGTKVEIK"
  koff / s⁻¹: 0.000282
- binder: "A02_Rd4_6nM_C22 (antibody, V domains shown, IgG) VH: EVQLLESGGGLVQPGGSLRLSCAASGFTFSSYAMNWVRQAPGKGLEWVSAVLDSGGSTYYADSVKGRFTISRDNSKNTLYLQMNSLRAEDTAVYYCARYWPMTPWGQGTLVTVSS VL: EIVLTQSPGTLSLSPGERATLSCRASQSVSSSYLAWYQQKPGQAPRLLMYDASIRATGIPDRFSGSGSGTDFTLTISRLEPEDFAVYYCQQYQVWPLTFGQGTKVEIK"
  koff / s⁻¹: 0.000182
- binder: "A02_Rd4_6nM_C19 (antibody, V domains shown, IgG) VH: EVQLLESGGGLVQPGGSLRLSCAASGFTFSSYAMNWVRQAPGKGLEWVSAISDSGGSRWYADSVKGRFTISRDNSKNTLYLQMNSLRAEDTAVYYCARYWPMSDWGQGTLVTVSS VL: EIVLTQSPGTLSLSPGERATLSCRASQSVSVLYLAWYQQKPGQAPRLLMYDASIRATGIPDRFSGSGSGTDFTLTISRLEPEDFAVYYCQQYLAWPLTFGQGTKVEIK"
  koff / s⁻¹: 0.000148
